Give IC50 for every item shown.
Biological target: UniProt Q9GZT9
Experiment: PHD2 inhibition assay (TR-FRET, VCB-Eu detection of hydroxylated P564-HIF1α peptide)
Format: biochemical
Details: 2 nM PHD2, 100 nM P564-HIF1α peptide, 0.25 μM 2-oxoglutarate, 100 μM FeCl2, 2 mM ascorbic acid

Could you share which IC50 value was measured for O=C(O)CNC(=O)C1=C(O)c2cc(Cl)ccc2[C@]2(CCOC2)C1=O ?
< 100 nM

Entry Cc1ccc2c(c1)C(O)=C(C(=O)NCC(=O)O)C(=O)C2(C)C has what IC50?
< 100 nM

Value lookup for IC50; key = CC1(C)C(=O)C(C(=O)NCC(=O)O)=C(O)c2cc(C#N)ccc21
< 100 nM

Entry CC(CC(=O)O)C(=O)C1=C(O)c2cc(Cl)ccc2C2(CCOCC2)C1=O (stereo not drawn) has what IC50?
1000 to 10000 nM

Would you mind telling me what IC50 value was observed for C[C@@]1(C#N)C(=O)C(C(=O)NCC(=O)O)=C(O)c2cc(Cl)ccc21 ?
< 100 nM

Suppose we examine the compound O=C(O)CNC(=O)C1=C(O)c2c(Cl)cccc2C2(CCOCC2)C1=O ; what IC50 value has been reported?
< 100 nM

Which IC50 is reported for this compound? CC1(C)C(=O)C(C(=O)NCC(=O)O)=C(O)c2cc(-c3ccccc3Cl)ccc21
500 to 1000 nM

IC50 for CC1(C)C(=O)C(C(=O)NCC(=O)O)=C(O)c2ccc(C(=O)O)cc21 ?
< 100 nM

# IC50 lookup, item CC1(C)C(=O)C(C(=O)NCC(=O)O)=C(O)c2cc(F)c(Cl)cc21
< 100 nM

Field request: IC50 | item: CC1(C)C(=O)C(C(=O)NCC(=O)O)=C(O)c2ccc(Cl)cc21
< 100 nM

Entry CC1(C)C(=O)C(C(=O)NCC(=O)O)=C(O)c2cc(F)c(F)cc21 has what IC50?
< 100 nM

Would you mind telling me what IC50 value was observed for CCC1(C)C(=O)C(C(=O)NCC(=O)O)=C(O)c2cc(Cl)ccc21 (stereo not drawn) ?
100 to 500 nM

Requested read-out: IC50. Entry: CC1(C)C(=O)C(C(=O)NCC(=O)O)=C(O)c2ccc(/C=C/c3ccccc3)cc21
< 100 nM

Which measured IC50 value corresponds to CC1(C#N)C(=O)C(C(=O)NCC(=O)O)=C(O)c2ccc(Br)cc21 (stereo not drawn) ?
< 100 nM

Requested field: IC50. Item: COc1ccc2c(c1F)C(C)(C)C(=O)C(C(=O)NCC(=O)O)=C2O
100 to 500 nM

Looking for the measured IC50 of CN(C)c1ccc(-c2ccc3c(c2)C(O)=C(C(=O)NCC(=O)O)C(=O)C3(C)C)cc1 , can you help?
100 to 500 nM

IC50 lookup needed for CC1(C)C(=O)C(C(=O)NCC(=O)O)=C(O)c2ccncc21 , thanks.
< 100 nM

So what does the record say about IC50 for O=C(O)CNC(=O)C1=C(O)c2ccc(Cl)cc2C2(CCOCC2)C1=O ?
< 100 nM

###

Would you mind telling me the reported pIC50 of each entry?
pIC50: −log10 of the molar value.

Field: pIC50 (HIF PHD2 (Homo sapiens)). Entry: O=C(O)CNC(=O)C1=C(O)c2cc(Cl)ccc2C2(CCN(C(=O)c3ccccc3)CC2)C1=O
> 7.00

Request body: readout pIC50, system HIF PHD2 (Homo sapiens), query CC1(C)C(=O)C(C(=O)NCC(=O)O)=C(O)c2cccc(Cl)c21 . Return the value.
> 7.00

API: value(readout=pIC50, system=HIF PHD2 (Homo sapiens)) for record CC1(C)C(=O)C(C(=O)NCC(=O)O)=C(O)c2ccc(-c3cccnc3)cc21
> 7.00

HIF PHD2 (Homo sapiens) / pIC50 / CC1(C)C(=O)C(C(=O)NCC(=O)O)=C(O)c2cc(-c3cncc(F)c3)ccc21 : value?
5.00 to 6.00

What is its pIC50 for HIF PHD2 (Homo sapiens)? Entry: CC1(C)C(=O)C(C(=O)NCC(=O)O)=C(O)c2ccc(Cl)c(Cl)c21
> 7.00

Record CC1(C)C(=O)C(C(=O)NCC(=O)O)=C(O)c2ccc(F)cc21 : what is its pIC50 with HIF PHD2 (Homo sapiens)?
> 7.00

Recorded pIC50 for CC1(C)C(=O)C(C(=O)NCC(=O)O)=C(O)c2ccc(Br)cc21 with HIF PHD2 (Homo sapiens), please?
> 7.00

What measured pIC50 is associated with O=C(O)CNC(=O)C1=C(O)c2cc(Cl)ccc2C2(CCOCC2)C1=O on HIF PHD2 (Homo sapiens)?
> 7.00

pIC50 of C[C@]1(c2ccc(Cl)cc2)C(=O)C(C(=O)NCC(=O)O)=C(O)c2cc(Cl)ccc21 (single isomer, unassigned) on HIF PHD2 (Homo sapiens)?
6.00 to 6.30
